Measured values drawn from PubChem BioAssay (EPA / NIEHS) for this set.

# Test system: DIO1 (gene 1733)
# test: CCTE_GLTED_hDIO1: CCTE's human Deiodinase 1 (DIO1) Inhibition Assay, Great Lakes Toxicology and Ecology Division (GLTED) Lab (AID 2283987);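 also: isolated human DIO1 enzyme in a cell-free setup rather than cells; enzyme activity read as free iodide liberated from substrate via Sandell-Kolthoff colorimetry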
Inconclusive results are not listed. Calls of active or inactive are those of the source. The calls were made as follows: active = hit-call score of the fitted dose curve at least 0.9, where 1 is the maximum; inconclusive = response in the unintended direction; inactive = score below 0.9.
As shown below, each of these molecules has a reported AC50 value.
property.measured: AC50

[
  {
    "mol.smiles": "CC/C=C\\C/C=C\\C/C=C\\CCCCCCCC(=O)O",
    "property.measured": "AC50",
    "reported": "20.6 µM (active)"
  },
  {
    "mol.smiles": "CCCCCCCCCCCCCOP(=O)(O)O",
    "property.measured": "AC50",
    "reported": "91 µM (active)"
  },
  {
    "mol.smiles": "Cc1ccc(N/N=c2\\c(=O)cc/c(=N/Nc3ccc(S(=O)(=O)O)cc3)c2=O)c(C)c1",
    "property.measured": "AC50",
    "reported": "46.6 µM (active)"
  },
  {
    "mol.smiles": "O=S(=O)(O)c1ccccc1C=Cc1ccc(-c2ccc(C=Cc3ccccc3S(=O)(=O)O)cc2)cc1",
    "property.measured": "AC50",
    "reported": "100 µM (active)"
  }
]
